tested on: H37Rv (katG^del); test: microbe, parasite or virus in culture; type: cell-based; details: Mycobacterium tuberculosis, isoniazid mono-resistant strain
parameter: MIC (µM)
Hi! Could you send only the number? It should be in µM, unit omitted.

## Task Requested read-out: MIC. Entry: CC(=O)[C@@H]1CC[C@]2(COS(=O)(=O)c3ccc(C)cc3)CC[C@]3(C)[C@H](CC[C@@H]4[C@@]5(C)CCCNC(C)(C)[C@@H]5CC[C@]43C)[C@@H]12
## Result 8

## Task Requested read-out: MIC. Entry: C=C(C)[C@@H]1CC[C@]2(C=NNC(=O)c3ccncc3)CC[C@]3(C)[C@H](CC[C@@H]4[C@@]5(C)CCCNC(C)(C)[C@@H]5CC[C@]43C)[C@@H]12
## Result 8

## Task Requested read-out: MIC. Entry: CC1(C)CCC23CCC4(C)C(CCC5C6(C)CCCNC(C)(C)C6CCC54C)C2C1OC3 (stereo not shown)
## Result 8
